The values you see were collected from patent US8030498B2.

Consider the following compounds and their measured Growth inhibition rate (%) redroot pigweed readings.
Test system: redroot pigweed (Amaranthus retroflexus L.)
Experiment: Test Example 1: foliar treatment, growth inhibition rate, redroot pigweed
Format: in vivo
Settings: 63 g/ha active ingredient, visually observed 17th to 23rd day after application
Hi! Could you send only the number? It should be in %, unit omitted.

{"COMPOUND": "CCSC(=O)Oc1c(C(=O)c2ccc(S(C)(=O)=O)c(OC)c2Cl)cnn1C [compound 214]", "NUMBER": 100}
{"COMPOUND": "CCSC(=O)Oc1c(C(=O)c2ccc(S(C)(=O)=O)c(S(C)(=O)=O)c2Cl)cnn1C [compound 224]", "NUMBER": 95}

# input for lookup
Request: Write down measured Growth inhibition rate (%) redroot pigweed (redroot pigweed (Amaranthus retroflexus L.)) for this compound. CCSC(=O)Oc1c(C(=O)c2ccc(S(C)(=O)=O)c(OCCC3OCCO3)c2Cl)cnn1CC [compound 221]
Result: 80

---

Tested on: greenfoxtail (Setaria viridis L.)
Test: Test Example 1: foliar treatment, growth inhibition rate, greenfoxtail
Assay type: in vivo
Details: 63 g/ha active ingredient, visually observed 17th to 23rd day after application
PROPERTY MEASURED: Growth inhibition rate (%) Greenfoxtail
Hi! Could you send only the number? It should be in %, unit omitted.

Request: Please list Growth inhibition rate (%) Greenfoxtail recorded for the compound CCSC(=O)Oc1c(C(=O)c2ccc(S(C)(=O)=O)c(OCC3OCCO3)c2Cl)cnn1CC
Result: 100

---

Test system: barnyardgrass (Echinochloa crus-galli L.)
Test: Test Example 1: foliar treatment, growth inhibition rate, barnyardgrass
Format: in vivo
Conditions: 31 g/ha active ingredient, visually observed 17th to 23rd day after application
Consider the following compounds and their measured Growth inhibition rate (%) Barnyardgrass readings.
Hi! Could you send only the number? It should be in %, unit omitted.

{"COMPOUND": "COCCOc1c(S(C)(=O)=O)ccc(C(=O)c2cnn(C)c2OC(=O)SC(C)(C)C)c1C [compound 241]", "NUMBER": 100}
{"COMPOUND": "COC(=O)c1c(S(C)(=O)=O)ccc(C(=O)c2cnn(C)c2OC(=O)SC(C)(C)C)c1C [compound 90]", "NUMBER": 80}

Request: Please list Growth inhibition rate (%) Barnyardgrass recorded for the compound CCSC(=O)Oc1c(C(=O)c2ccc(S(C)(=O)=O)c(CC(=O)OC)c2C)cnn1C [compound 64]
Result: 100

Request: Please list Growth inhibition rate (%) Barnyardgrass recorded for the compound CCSC(=O)Oc1c(C(=O)c2ccc(S(C)(=O)=O)c(C#N)c2C)cnn1C [compound 82]
Result: 70

---

Consider the following compounds and their measured Growth inhibition rate (%) Velvetleaf readings.
Tested on: velvetleaf
Test: Test Example 2: soil application on the day after sowing, growth inhibition rate, velvetleaf
Assay type: in vivo, Abutilon theophrasti MEDIC.
Details: 250 g/ha active ingredient, observed on 19th to 24th day
Hi! Could you send only the number? It should be in %, unit omitted.

Here is how some compounds turned out for Growth inhibition rate (%) Velvetleaf.
{"COMPOUND": "CCSC(=O)Oc1c(C(=O)c2ccc(S(C)(=O)=O)c(CCOC)c2C)cnn1C", "PROPERTY MEASURED": "Growth inhibition rate (%) Velvetleaf", "NUMBER": 80}
{"COMPOUND": "C=CCSC(=O)Oc1c(C(=O)c2ccc(S(C)(=O)=O)c(C(=O)OC)c2C)cnn1CC", "PROPERTY MEASURED": "Growth inhibition rate (%) Velvetleaf", "NUMBER": 100}
{"COMPOUND": "CCSC(=O)Oc1c(C(=O)c2ccc(S(C)(=O)=O)c(C#N)c2C)cnn1C", "PROPERTY MEASURED": "Growth inhibition rate (%) Velvetleaf", "NUMBER": 20}
{"COMPOUND": "CCOc1c(S(C)(=O)=O)ccc(C(=O)c2cnn(CC)c2OC(=O)SCC)c1C", "PROPERTY MEASURED": "Growth inhibition rate (%) Velvetleaf", "NUMBER": 10}
{"COMPOUND": "CCSC(=O)Oc1c(C(=O)c2ccc(S(C)(=O)=O)c(CSC#N)c2C)cnn1C", "PROPERTY MEASURED": "Growth inhibition rate (%) Velvetleaf", "NUMBER": 0}
{"COMPOUND": "CCCSC(=O)Oc1c(C(=O)c2ccc(S(C)(=O)=O)c(OCCOC)c2C)cnn1CC", "PROPERTY MEASURED": "Growth inhibition rate (%) Velvetleaf", "NUMBER": 20}
{"COMPOUND": "CCSC(=O)Oc1c(C(=O)c2ccc(S(C)(=O)=O)c(COCC(F)(F)F)c2C)cnn1C", "PROPERTY MEASURED": "Growth inhibition rate (%) Velvetleaf", "NUMBER": 70}
{"COMPOUND": "C#CCOc1c(S(C)(=O)=O)ccc(C(=O)c2cnn(C)c2OC(=O)SCC)c1C", "PROPERTY MEASURED": "Growth inhibition rate (%) Velvetleaf", "NUMBER": 80}
{"COMPOUND": "CCOC(=O)c1c(S(C)(=O)=O)ccc(C(=O)c2cnn(CC)c2OC(=O)SCC)c1Cl", "PROPERTY MEASURED": "Growth inhibition rate (%) Velvetleaf", "NUMBER": 100}
{"COMPOUND": "CCSC(=O)Oc1c(C(=O)c2ccc(S(C)(=O)=O)c(OCCCl)c2C)cnn1C", "PROPERTY MEASURED": "Growth inhibition rate (%) Velvetleaf", "NUMBER": 50}

Request: Please list Growth inhibition rate (%) Velvetleaf recorded for the compound CCn1ncc(C(=O)c2ccc(S(C)(=O)=O)c(C(=O)OC)c2C)c1OC(=O)SC(C)C
Result: 50

---

System: crabgrass (Digitaria sanguinalis L.)
Assay: Test Example 1: foliar treatment, growth inhibition rate, crabgrass
Format: in vivo
Settings: 63 g/ha active ingredient, visually observed 17th to 23rd day after application
PROPERTY MEASURED: Growth inhibition rate (%) Crabgrass
Note: a bare number is incomplete; add the unit.

Request: Please list Growth inhibition rate (%) Crabgrass recorded for the compound CCSC(=O)Oc1c(C(=O)c2ccc(S(C)(=O)=O)c(OC)c2Cl)cnn1C [compound 214]
Result: 95%

Request: Please list Growth inhibition rate (%) Crabgrass recorded for the compound CCSC(=O)Oc1c(C(=O)c2ccc(S(C)(=O)=O)c(OCC3OCCO3)c2Cl)cnn1CC [compound 227]
Result: 100%

Request: Please list Growth inhibition rate (%) Crabgrass recorded for the compound CCSC(=O)Oc1c(C(=O)c2ccc(S(C)(=O)=O)c(CN(CC#N)C(=O)SCC)c2C)cnn1C [compound 228]
Result: 60%

Request: Please list Growth inhibition rate (%) Crabgrass recorded for the compound CCSC(=O)Oc1c(C(=O)c2ccc(S(C)(=O)=O)c(OCCC3OCCO3)c2Cl)cnn1CC [compound 221]
Result: 50%

---

System: redroot pigweed (Amaranthus retroflexus L.)
Experiment: Test Example 1: foliar treatment, growth inhibition rate, redroot pigweed
Type: in vivo
Conditions: 31 g/ha active ingredient, visually observed 17th to 23rd day after application
PROPERTY MEASURED: Growth inhibition rate (%) redroot pigweed
Hi! Could you send only the number? It should be in %, unit omitted.

Here is how some molecules turned out for Growth inhibition rate (%) redroot pigweed.
{"MOLECULE": "CCOC(=O)COc1c(S(C)(=O)=O)ccc(C(=O)c2cnn(C)c2OC(=O)SCC)c1C", "ASSAY SYSTEM": "redroot pigweed (Amaranthus retroflexus L.)", "NUMBER": 30}
{"MOLECULE": "CCSC(=O)Oc1c(C(=O)c2ccc(S(C)(=O)=O)c(CCCOC)c2C)cnn1C", "ASSAY SYSTEM": "redroot pigweed (Amaranthus retroflexus L.)", "NUMBER": 95}
{"MOLECULE": "CCn1ncc(C(=O)c2ccc(S(C)(=O)=O)c(C(=O)OC)c2C)c1OC(=O)SCc1ccccc1", "ASSAY SYSTEM": "redroot pigweed (Amaranthus retroflexus L.)", "NUMBER": 98}
{"MOLECULE": "CCSC(=O)Oc1c(C(=O)c2ccc(S(C)(=O)=O)c(OC(F)F)c2C)cnn1C", "ASSAY SYSTEM": "redroot pigweed (Amaranthus retroflexus L.)", "NUMBER": 20}
{"MOLECULE": "CCOCc1c(S(C)(=O)=O)ccc(C(=O)c2cnn(C)c2OC(=O)SCC)c1C", "ASSAY SYSTEM": "redroot pigweed (Amaranthus retroflexus L.)", "NUMBER": 100}

Request: Please list Growth inhibition rate (%) redroot pigweed recorded for the molecule CCCSC(=O)Oc1c(C(=O)c2ccc(S(C)(=O)=O)c(OCCOC)c2C)cnn1C
Result: 100

Request: Please list Growth inhibition rate (%) redroot pigweed recorded for the molecule CCSC(=O)Oc1c(C(=O)c2ccc(S(C)(=O)=O)c(C(=O)OC)c2Cl)cnn1C
Result: 95

---

Tested on: rice (Oryza sativa L.)
Test: Test Example 1: foliar treatment, growth inhibition rate, rice
Assay type: in vivo
Settings: 31 g/ha active ingredient, visually observed 17th to 23rd day after application
Decide using Growth inhibition rate (%) Rice: a value greater than or equal to 80% is True, a smaller one is False.

Below are worked cases with known answers.
{"MOLECULE": "COC(=O)c1c(S(C)(=O)=O)ccc(C(=O)c2cnn(C)c2OC(=O)SCc2ccccc2)c1C", "CLASS": "False"}
{"MOLECULE": "CCCSC(=O)Oc1c(C(=O)c2ccc(S(C)(=O)=O)c(C(=O)OC)c2C)cnn1C", "CLASS": "True"}
{"MOLECULE": "CCSC(=O)Oc1c(C(=O)c2ccc(S(C)(=O)=O)c(C(=O)SC)c2Cl)cnn1C", "CLASS": "False"}
{"MOLECULE": "CCSC(=O)Oc1c(C(=O)c2ccc(S(C)(=O)=O)c(OC3CCOC3)c2C)cnn1C (centres unmarked)", "CLASS": "True"}

Request: Determine whether this molecule has Growth inhibition rate (%) Rice no lower than 80%: CCOC(=O)c1c(S(C)(=O)=O)ccc(C(=O)c2cnn(CC)c2OC(=O)SCC)c1C
Result: True

Request: Determine whether this molecule has Growth inhibition rate (%) Rice no lower than 80%: CCSC(=O)Oc1c(C(=O)c2ccc(S(C)(=O)=O)c(COCCOC)c2C)cnn1C
Result: False

Request: Determine whether this molecule has Growth inhibition rate (%) Rice no lower than 80%: CCC(C)SC(=O)Oc1c(C(=O)c2ccc(S(C)(=O)=O)c(OCCOC)c2C)cnn1C (centres unmarked)
Result: True

Request: Determine whether this molecule has Growth inhibition rate (%) Rice no lower than 80%: CCSC(=O)Oc1c(C(=O)c2ccc(S(C)(=O)=O)c(COC)c2Cl)cnn1C
Result: True
